# Tested on: HL-60(TB) leukemia
# measurement-description: NCI tumour cell line growth inhibition, 48 h; in the data active = GI50 below about 0.43 µM; inactive = the rest
Your answer must be one of the following: t (active), f (inactive)

As a guide, the following entries are already answered.
>  <molecule>
COC(C(=O)[C@@H](O)[C@@H](C)O)[C@@H]1Cc2cc3cc(O[C@H]4C[C@@H](O[C@H]5C[C@@H](O)[C@H](O)C(C)O5)[C@H](O)C(C)O4)c(C)c(O)c3c(O)c2C(=O)[C@H]1O[C@H]1C[C@@H](O[C@H]2C[C@@H](O[C@H]3C[C@@H](O)[C@H](OC)C(C)O3)[C@@H](O)C(C)O2)[C@H](O)C(C)O1 (stereo partly specified)

>  <qualitative-label>
t

$$$$
>  <molecule>
CCCCCCCCCCCCOC1C(C(CC(=O)NCCN2CCCC2)NS(=O)(=O)c2cc(Cl)cc(Cl)c2)OC2OC(C)(C)OC21 (stereo unspecified)

>  <qualitative-label>
f

$$$$
>  <molecule>
N#Cc1ccc(OC(=O)Nc2ccc(Cl)c(Cl)c2)cc1

>  <qualitative-label>
f

$$$$
>  <molecule>
COc1ccc(Cc2cnc(NC(=O)c3ccc4c(c3)OCCO4)s2)cc1

>  <qualitative-label>
t

$$$$

Hi, do you know how "S=C1SC2=Nc3ccccc3CN2C2=NCCN12" came out in this test?
f

Likewise for "O=C(NO)c1ccc(CN(c2cnccn2)c2cnccn2)cc1" ?
f

---

# Test system: EKVX NSCLC
# measurement-description: NCI tumour cell line growth inhibition, 48 h
Recorded TGI values for a group of molecules are listed next.
Hi! Could you send only the number? It should be in µM, unit omitted.

Some solved cases for reference:
>  <molecule>
Cc1cc(C(C)(C)C)cc(Cc2cc(C(C)(C)C)cc(Cc3cc(C(C)(C)C)cc(C)c3O)c2O)c1O

>  <TGI / µM>
22.9

$$$$
>  <molecule>
COc1ccc2c(c1)C(C)Cc1c(ncnc1-n1cnc3cc(C)ccc31)N2C (stereo unspecified)

>  <TGI / µM>
23.2

$$$$

Shifting focus to the molecule that follows.
Data request, read-out TGI, for CC(=O)OC1C2CCC1C1C2C2(Cl)C(Cl)=C(Cl)C1(Cl)C2(Cl)Cl (stereo unspecified)
24.1

---

# Test system: SR leukemia
# measurement-description: NCI tumour cell line growth inhibition, 48 h
observed-property: GI50

Here's what some known entries look like.
>  <molecule>
Cc1c2ccncc2c(C)c2c1[nH]c1ccccc12

>  <study-target>
SR leukemia

>  <GI50>
819 nM

$$$$
>  <molecule>
CCCCCCCCCCN1CCC(N2CCCCC2)CC1

>  <study-target>
SR leukemia

>  <GI50>
627 nM

$$$$
>  <molecule>
N#Cc1ccc(OC(=O)Nc2ccc(Cl)c(Cl)c2)cc1

>  <study-target>
SR leukemia

>  <GI50>
7670 nM

$$$$
>  <molecule>
CCN1C(=O)N(CC)C2Nn3c(s/c(=C4\C(=O)N(C)c5ccccc54)c3=O)=NC21 (configuration not stated)

>  <study-target>
SR leukemia

>  <GI50>
978 nM

$$$$
>  <molecule>
CCCCCCCCCCCCOC1C(C(CC(=O)NCCN2CCCC2)NS(=O)(=O)c2cc(Cl)cc(Cl)c2)OC2OC(C)(C)OC21 (configuration not stated)

>  <study-target>
SR leukemia

>  <GI50>
1480 nM

$$$$
>  <molecule>
Cn1c(=O)c2c(ncn2CC(=O)Nc2ccc(-c3ccccc3)nn2)n(C)c1=O

>  <study-target>
SR leukemia

>  <GI50>
42900 nM

$$$$
>  <molecule>
O=C(Nc1ccc(Cl)c(Cl)c1)Nc1ccccc1O

>  <study-target>
SR leukemia

>  <GI50>
4570 nM

$$$$
>  <molecule>
CCCCCc1ccc(S(=O)(=O)Nc2cc(-c3csc(NC(C)=O)n3)ccc2N2CCN(C)CC2)cc1

>  <study-target>
SR leukemia

>  <GI50>
929 nM

$$$$

GI50 lookup needed for "C=C1CC[C@@H](C(C)C)C[C@@H]2[C@H]([C@H](O)C[C@]2(C)O)[C@@]2(C)CC[C@@H]1O2" , thanks.
14200 nM

Also "C/C(=N\NC(=S)N1CC2CCC(CC2)C1)c1ccccn1" ?
42.4 nM

What about this molecule? "NC(=S)N/N=C/c1cc(-c2cccc(N)c2)ccn1"
346 nM

Param item: "S=C1SC2=Nc3ccccc3CN2C2=NCCN12"
18700 nM
